# test-target: JAK3 (Homo sapiens)
# Sequence (P52333 1-1124): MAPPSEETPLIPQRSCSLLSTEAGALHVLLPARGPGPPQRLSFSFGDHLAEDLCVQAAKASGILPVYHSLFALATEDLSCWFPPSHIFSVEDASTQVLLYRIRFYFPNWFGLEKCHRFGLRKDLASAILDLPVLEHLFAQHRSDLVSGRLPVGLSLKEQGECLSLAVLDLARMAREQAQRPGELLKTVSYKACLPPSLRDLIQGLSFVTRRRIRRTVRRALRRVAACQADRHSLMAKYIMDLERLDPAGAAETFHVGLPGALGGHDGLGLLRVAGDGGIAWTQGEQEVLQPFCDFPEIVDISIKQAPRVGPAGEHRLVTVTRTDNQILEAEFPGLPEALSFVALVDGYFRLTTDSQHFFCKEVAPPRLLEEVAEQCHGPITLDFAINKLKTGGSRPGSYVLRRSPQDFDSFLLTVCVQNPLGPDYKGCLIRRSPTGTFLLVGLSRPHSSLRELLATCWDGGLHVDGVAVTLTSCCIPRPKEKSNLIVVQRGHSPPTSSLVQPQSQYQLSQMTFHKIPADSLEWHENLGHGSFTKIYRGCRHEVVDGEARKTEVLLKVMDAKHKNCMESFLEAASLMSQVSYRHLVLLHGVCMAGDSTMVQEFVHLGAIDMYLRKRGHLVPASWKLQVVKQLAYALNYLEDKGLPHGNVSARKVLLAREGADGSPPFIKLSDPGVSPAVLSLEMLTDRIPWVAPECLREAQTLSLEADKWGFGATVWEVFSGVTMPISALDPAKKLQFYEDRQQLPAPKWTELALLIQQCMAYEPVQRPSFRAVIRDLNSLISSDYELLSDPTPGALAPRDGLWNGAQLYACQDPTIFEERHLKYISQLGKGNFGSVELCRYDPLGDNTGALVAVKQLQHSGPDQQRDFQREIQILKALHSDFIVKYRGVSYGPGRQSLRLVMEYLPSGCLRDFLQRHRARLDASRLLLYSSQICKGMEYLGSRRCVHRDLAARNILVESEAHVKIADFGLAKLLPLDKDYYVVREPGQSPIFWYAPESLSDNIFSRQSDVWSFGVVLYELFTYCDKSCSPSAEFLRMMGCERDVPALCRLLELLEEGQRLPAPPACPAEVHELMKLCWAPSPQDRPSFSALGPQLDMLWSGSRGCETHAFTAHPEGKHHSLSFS
pIC50: −log10 of the molar value.
metric: pIC50

INSERT INTO measurements (compound, endpoint_value) VALUES
  ('Cn1cc(Nc2nccc(N3CC4CSC(C3)N4C(=O)[C@@H]3CC3(F)F)n2)cn1 (some centres unmarked)', 5.46),
  ('O=C([C@@H]1CC1(F)F)N1[C@H]2CS[C@@H]1CN(c1ccnc(Nc3cnn(CCO)c3)n1)C2', 5.64);
